Where these numbers come from: patent US20080255175A1

System: NCI-H460 human non-small cell lung cancer
Assay: NCI-H460 human non-small cell lung cancer nude mice xenograft model
Assay type: in vivo, BALB/c nude mice
Settings: after four weeks, twice every week; Dosage 1: topotecan 2 i.v., Compound 1 0.625 i.p., Compound 2 5 i.v., Compound 3 1.5625 i.v. (mg/kg); model 3.08 ± 0.88
quantity.measured: Tumor Weight (g)
Express it in g; write the number only.

molecule CC[C@@]1(O)C(=O)OCc2c1cc1n(c2=O)Cc2cc3c(CN(C)C)c(O)ccc3nc2-1 [topotecan, Topotecan, reference compound] , Tumor Weight observed: 1.58

molecule CCCS(=O)(=O)Oc1ccc2nc3c(cc2c1CN(C)C)Cn1c-3cc2c(c1=O)COC(=O)C2(CC)OC(=O)CNC(=O)/C=C\C(=O)O (stereo not shown) , Tumor Weight observed: 1.55

molecule CC[C@@]1(OC(=O)CNC(=O)/C=C\C(=O)O)C(=O)OCc2c1cc1n(c2=O)Cc2cc3c(CN(C)C)c(OS(=O)(=O)C(C)C)ccc3nc2-1 , Tumor Weight observed: 1.36

molecule CCC1(OC(=O)CNC(=O)/C=C\C(=O)O)C(=O)OCc2c1cc1n(c2=O)Cc2cc3ccccc3nc2-1 (stereo not shown) , Tumor Weight observed: 1.77
